Reported pIC50 values, PARP2 (Mus musculus (Mouse)).
pIC50: −log10 of the molar value.

| compound | system | cmp | pIC50 |
| --- | --- | --- | --- |
| O=C(c1ccc(OC(F)(F)F)cc1)C1CCN(CC(=O)N(Cc2nc3c(c(=O)[nH]2)COCC3)CC(F)F)CC1 [Example 71] | PARP2 (Mus musculus (Mouse)) | = | 4.93 |
| O=C(c1ccc(F)cc1)C1CCN(CC(=O)N(Cc2cccc(F)c2)Cc2nc3c(c(=O)[nH]2)COCC3)CC1 [Example 19] | PARP2 (Mus musculus (Mouse)) | < | 4.72 |
| CCCOc1ccc(C(=O)C2CCN(CC(=O)NCc3nc4c(c(=O)[nH]3)COCC4)CC2)cc1 [Example 84] | PARP2 (Mus musculus (Mouse)) | = | 5.67 |
| CC#CCOc1ccc(C(=O)C2CCN(CC(=O)N(Cc3nc4c(c(=O)[nH]3)COCC4)CC3CC3)CC2)cc1 [Example 78] | PARP2 (Mus musculus (Mouse)) | < | 4.72 |
